# Ki per entry
- assayTarget: human cloned 5-HT6 receptors (Homo sapiens, UniProt P50406)
- Sequence (P50406 whole entry): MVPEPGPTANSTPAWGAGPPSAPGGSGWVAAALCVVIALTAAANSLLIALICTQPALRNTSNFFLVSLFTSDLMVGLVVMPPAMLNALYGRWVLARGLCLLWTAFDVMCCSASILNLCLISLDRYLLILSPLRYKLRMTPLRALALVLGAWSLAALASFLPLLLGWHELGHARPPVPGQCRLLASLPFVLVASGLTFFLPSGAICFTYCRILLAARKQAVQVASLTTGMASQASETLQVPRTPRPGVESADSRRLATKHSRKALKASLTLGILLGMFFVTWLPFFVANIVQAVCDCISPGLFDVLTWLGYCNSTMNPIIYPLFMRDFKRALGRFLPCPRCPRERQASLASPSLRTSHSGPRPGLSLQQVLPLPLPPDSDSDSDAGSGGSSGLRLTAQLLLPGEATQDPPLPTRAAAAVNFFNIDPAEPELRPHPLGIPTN
Counter-ions that a name gives are not always drawn.
Response body: numeric value in nM, unit text excluded.

Previously resolved entries follow.
- compound: "O=S(=O)(c1cccc2ccccc12)c1nn2c3c(cccc13)OC(CN1CCCC1)C2 (stereo not drawn) [Example 7, Hydrochloride]"
  Ki [nM]: 3
- compound: "O=S(=O)(c1cccc2ccccc12)c1nn2c3c(cccc13)OC(CN1CCCCC1)C2 (stereo not drawn) [Example 8, Hydrochloride]"
  Ki [nM]: 160

Now for another entry.
State, in one line, measured Ki of CN(C)CC1Cn2nc(S(=O)(=O)c3cccc4ccccc34)c3cccc(c32)O1 (stereo not drawn) [Example 6, Hydrochloride] 1.6
